System: 138582-337-R-J1-PDC complex spheroid viability
Assay: Anticancer human tumor 138582-337-R-J1-PDC patient-derived Merkel cell tumor cell line growth inhibition
Settings: second compound 0.1 µM; first compound 0.000316 µM; stronger effect = lower value
ASSAY_READOUT: viability, T/C (%)
Please state the figure in %; there is no need to write the unit.

# example entries with known answers
# MOLECULE, READOUT_UNIT, VALUE_OBSERVED
data = [
    ("CC(C)CC(NC(=O)C(Cc1ccccc1)NC(=O)c1cnccn1)B(O)O (stereo not drawn) + NC1CC1c1ccc(-c2cccc(O)c2)cc1", "%", 85.2),
    ("CC(C)CC(NC(=O)C(Cc1ccccc1)NC(=O)c1cnccn1)B(O)O (stereo not drawn) + NC1CCC(NC2CC2c2ccccc2)CC1", "%", 125),
    ("CC[C@@]1(O)C(=O)OCc2c1cc1n(c2=O)Cc2cc3c(CN(C)C)c(O)ccc3nc2-1 + NC1CCC(NC2CC2c2ccccc2)CC1", "%", 91),
    ("CC(C)CC(NC(=O)CNC(=O)c1cc(Cl)ccc1Cl)B1OC(=O)CC(CC(=O)O)(C(=O)O)O1 (stereo not drawn) + NC1CC1c1ccc(-c2cccc(O)c2)cc1", "%", 94.3),
    ("Cn1ncnc1C1c2n[nH]c(=O)c3cc(F)cc(c23)NC1c1ccc(F)cc1 (stereo not drawn) + NC1CC1c1ccc(-c2cccc(O)c2)cc1", "%", 88.1),
]

Answer with the recorded viability, T/C for the molecule listed here: Cn1ncnc1C1c2n[nH]c(=O)c3cc(F)cc(c23)NC1c1ccc(F)cc1 (stereo not drawn) + NC1CCC(NC2CC2c2ccccc2)CC1
82.5

Return reported viability, T/C. Input molecule: CC(C)CC(NC(=O)CNC(=O)c1cc(Cl)ccc1Cl)B1OC(=O)CC(CC(=O)O)(C(=O)O)O1 (stereo not drawn) + NC1CCC(NC2CC2c2ccccc2)CC1
101

Return value of viability, T/C for input CC[C@@]1(O)C(=O)OCc2c1cc1n(c2=O)Cc2cc3c(CN(C)C)c(O)ccc3nc2-1 + NC1CC1c1ccc(-c2cccc(O)c2)cc1 , no commentary.
70.6

----------
System: 138582-337-R-J1-PDC complex spheroid viability
Assay: Anticancer human tumor 138582-337-R-J1-PDC cell line growth inhibition;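 further: spheroids exposed to agents for 7 days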;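 on viability, T/C: 100% = DMSO vehicle control viability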
Conditions: second compound 3.16 µM; first compound 0.001 µM; stronger effect = lower value
ASSAY_READOUT: viability, T/C (%)
State the answer as a number, implicitly in %.

# COMPOUND, READOUT_UNIT, viability, T/C
records = [
    ("CC[C@@]1(O)C(=O)OCc2c1cc1n(c2=O)Cc2cc3c(CN(C)C)c(O)ccc3nc2-1 + NC1CC1c1ccc(-c2cccc(O)c2)cc1", "%", 74.8),
]

Give reported viability, T/C value for Cn1ncnc1C1c2n[nH]c(=O)c3cc(F)cc(c23)NC1c1ccc(F)cc1 (stereo not drawn) + NC1CC1c1ccc(-c2cccc(O)c2)cc1
91.3

Return viability, T/C for the following compound: CC(C)CC(NC(=O)CNC(=O)c1cc(Cl)ccc1Cl)B1OC(=O)CC(CC(=O)O)(C(=O)O)O1 (stereo not drawn) + NC1CCC(NC2CC2c2ccccc2)CC1
98.8

Answer with the recorded viability, T/C of CC(C)CC(NC(=O)CNC(=O)c1cc(Cl)ccc1Cl)B1OC(=O)CC(CC(=O)O)(C(=O)O)O1 (stereo not drawn) + NC1CC1c1ccc(-c2cccc(O)c2)cc1 only.
104

Give me measured viability, T/C, please, for this compound: CC(C)CC(NC(=O)C(Cc1ccccc1)NC(=O)c1cnccn1)B(O)O (stereo not drawn) + NC1CCC(NC2CC2c2ccccc2)CC1
47

----------
Test system: 138582-337-R-J1-PDC complex spheroid viability
Test: Anticancer human tumor 138582-337-R-J1-PDC cell line growth inhibition;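 further: spheroids exposed to agents for 7 days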
Settings: curve of first compound; second compound 10 µM
ASSAY_READOUT: IC50

# COMPOUND, IC50
measured = [
    ("CC(C)c1c(-c2ccccc2)nc2c(C#N)c[nH]n2c1=O + NC1CCC(NC2CC2c2ccccc2)CC1", "> 10000 nM"),
]

Query compound follows.
Fill in IC50 for record CCc1c2c(nc3ccc(O)cc13)-c1cc3c(c(=O)n1C2)COC(=O)[C@]3(O)CC + NC1CCC(NC2CC2c2ccccc2)CC1
10.6 nM

----------
Catalogue of viability, T/C readings, one per entry.
Tested on: 138582-337-R-J1-PDC complex spheroid viability
Assay: Anticancer human tumor 138582-337-R-J1-PDC cell line growth inhibition;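 further: spheroids exposed to agents for 7 days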;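 on viability, T/C: 100% = DMSO vehicle control viability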
Settings: second compound 1 µM; first compound 0.001 µM; stronger effect = lower value

As a guide, the following entries are already answered.
# MOLECULE, viability, T/C
records = [
    ("CC(C)CC(NC(=O)CNC(=O)c1cc(Cl)ccc1Cl)B1OC(=O)CC(CC(=O)O)(C(=O)O)O1 (stereo not drawn) + NC1CCC(NC2CC2c2ccccc2)CC1", "115%"),
    ("Cn1ncnc1C1c2n[nH]c(=O)c3cc(F)cc(c23)NC1c1ccc(F)cc1 (stereo not drawn) + NC1CC1c1ccc(-c2cccc(O)c2)cc1", "83.7%"),
    ("CC(C)CC(NC(=O)C(Cc1ccccc1)NC(=O)c1cnccn1)B(O)O (stereo not drawn) + NC1CC1c1ccc(-c2cccc(O)c2)cc1", "2.41%"),
    ("CC(C)CC(NC(=O)C(Cc1ccccc1)NC(=O)c1cnccn1)B(O)O (stereo not drawn) + NC1CCC(NC2CC2c2ccccc2)CC1", "46.8%"),
    ("CC(C)CC(NC(=O)CNC(=O)c1cc(Cl)ccc1Cl)B1OC(=O)CC(CC(=O)O)(C(=O)O)O1 (stereo not drawn) + NC1CC1c1ccc(-c2cccc(O)c2)cc1", "112%"),
]

Give the observed viability, T/C of CC[C@@]1(O)C(=O)OCc2c1cc1n(c2=O)Cc2cc3c(CN(C)C)c(O)ccc3nc2-1 + NC1CCC(NC2CC2c2ccccc2)CC1 for 138582-337-R-J1-PDC complex spheroid viability.
101%

Provide the reported viability, T/C (system: 138582-337-R-J1-PDC complex spheroid viability) for Cn1ncnc1C1c2n[nH]c(=O)c3cc(F)cc(c23)NC1c1ccc(F)cc1 (stereo not drawn) + NC1CCC(NC2CC2c2ccccc2)CC1
88.7%

For 138582-337-R-J1-PDC complex spheroid viability, give viability, T/C of the listed molecule: CC[C@@]1(O)C(=O)OCc2c1cc1n(c2=O)Cc2cc3c(CN(C)C)c(O)ccc3nc2-1 + NC1CC1c1ccc(-c2cccc(O)c2)cc1
70.7%

----------
Tested on: 138582-337-R-J1-PDC complex spheroid viability
Assay: Anticancer human tumor 138582-337-R-J1-PDC cell line growth inhibition;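 further: spheroids exposed to agents for 7 days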
Conditions: curve of first compound; second compound 10 µM
Listed molecules paired with reported IC50

Recorded IC50, per entry:
# MOLECULE, IC50
records = [
    ("CC(C)CC(NC(=O)C(Cc1ccccc1)NC(=O)c1cnccn1)B(O)O (centres undefined) + NC1CCC(NC2CC2c2ccccc2)CC1", "0.842 nM"),
    ("O=C(c1cc(Cc2n[nH]c(=O)c3ccccc23)ccc1F)N1CCN(C(=O)C2CC2)CC1 + NC1CC1c1ccc(-c2cccc(O)c2)cc1", "> 10000 nM"),
    ("CC(C)CC(NC(=O)CNC(=O)c1cc(Cl)ccc1Cl)B1OC(=O)CC(CC(=O)O)(C(=O)O)O1 (centres undefined) + NC1CCC(NC2CC2c2ccccc2)CC1", "8.49 nM"),
]

Let us examine a further case.
State IC50 (138582-337-R-J1-PDC complex spheroid viability) of CC1(C)CCC(CN2CCN(c3ccc(C(=O)NS(=O)(=O)c4ccc(NCC5CCOCC5)c([N+](=O)[O-])c4)c(Oc4cnc5[nH]ccc5c4)c3)CC2)=C(c2ccc(Cl)cc2)C1 + NC1CCC(NC2CC2c2ccccc2)CC1 .
> 10000 nM

----------
Tested on: 138582-337-R-J1-PDC complex spheroid viability
Assay: Anticancer human tumor 138582-337-R-J1-PDC cell line growth inhibition;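 further: spheroids exposed to agents for 7 days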;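 on viability, T/C: 100% = DMSO vehicle control viability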
Details: second compound 0.1 µM; first compound 0.949 µM; stronger effect = lower value
Doc: threshold 30% (exclusive). Items with viability, T/C beneath it return T; others return F.

Observe how each entry below is paired with its result.
# COMPOUND, DISCRETE_LABEL
records = [
    ("Nc1ccccc1NC(=O)c1ccc(CNC(=O)OCc2cccnc2)cc1 + NC1CC1c1ccc(-c2cccc(O)c2)cc1", "T"),
    ("NS(=O)(=O)OCC1CC(n2ccc3c(NC4CCc5ccccc54)ncnc32)CC1O (stereo not given) + NC1CC1c1ccc(-c2cccc(O)c2)cc1", "T"),
]

Could you please tell me whether viability, T/C recorded for CCN(c1cc(-c2ccc(CN3CCOCC3)cc2)cc(C(=O)NCc2c(C)cc(C)[nH]c2=O)c1C)C1CCOCC1 + NC1CC1c1ccc(-c2cccc(O)c2)cc1 is less than 30%?
F

# strict comparison: is reported viability, T/C < 30%? input = Nc1ccccc1NC(=O)c1ccc(CNC(=O)OCc2cccnc2)cc1 + NC1CCC(NC2CC2c2ccccc2)CC1
F

I wonder whether COc1cc(C2c3cc4c(cc3C(OC3OC5COC(C)OC5C(O)C3O)C3COC(=O)C23)OCO4)cc(OC)c1O (stereo not given) + NC1CC1c1ccc(-c2cccc(O)c2)cc1 has viability, T/C below 30%. Can you tell?
F
